measurement_target: T1, human HER-2 protein (soluble / recombinant, used in SPR) (human, UniProt P04626 23-652)
T1 construct: also called immobilized HER2 protein; recombinant HER-2
experiment: SPR
assay_endpoint: Kd

If you can, please state the reported Kd value of P1E4 antibody (antibody, V domains shown) VH: QVQLQQWGAGLLKPSETLSLTCAVYGGSFSGYYWSWIRQPPGKGLEWIGEINHSGSTNYNPSLKSRVTISVDTSKNQFSLKLSSVTTADTAVYYCARMGINSGGYLYGMDVWGQGTTVTVSS VL: QTVVTQEPSFSVSPGGTVTLTCGLSSGSVSTSYYPSWYQQIPGQAPRTLIYTTNIRSSGVPDRFGGSILGNKAALTITGAQAEDESDYYCMLYMGSGIWVFGGGTKLTVLG .
5.3 nM
